# target.system: T1, rat MuSK (rat, UniProt Q62838 22-494, limits assumed)
# T1 construct: Coated on Biacore chip (200RU) or ELISA plate
# T1 sequence (looked up): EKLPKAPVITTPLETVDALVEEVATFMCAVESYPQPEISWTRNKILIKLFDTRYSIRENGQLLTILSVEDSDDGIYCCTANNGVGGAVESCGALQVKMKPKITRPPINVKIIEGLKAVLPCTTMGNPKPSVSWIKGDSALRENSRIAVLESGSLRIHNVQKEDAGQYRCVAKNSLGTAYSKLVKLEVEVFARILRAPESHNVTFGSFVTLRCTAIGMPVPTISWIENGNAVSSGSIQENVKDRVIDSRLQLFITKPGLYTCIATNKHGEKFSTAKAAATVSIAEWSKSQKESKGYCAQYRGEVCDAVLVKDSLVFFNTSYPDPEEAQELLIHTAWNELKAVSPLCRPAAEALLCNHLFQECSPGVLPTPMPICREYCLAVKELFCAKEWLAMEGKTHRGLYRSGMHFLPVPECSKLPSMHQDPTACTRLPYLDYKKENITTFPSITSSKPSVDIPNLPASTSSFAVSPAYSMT
# assay: Biacore, MuSK on chip, association pH 7.4, dissociation pH 5.5
readout.type: kon (M⁻¹ s⁻¹)
Give your result in M⁻¹ s⁻¹ as a bare value.

Worked examples follow.
binder="3B2g2m4 (antibody, human IgG1, V domains shown, human IgG1-LALA backbone; produced in HEK293 cells) VH: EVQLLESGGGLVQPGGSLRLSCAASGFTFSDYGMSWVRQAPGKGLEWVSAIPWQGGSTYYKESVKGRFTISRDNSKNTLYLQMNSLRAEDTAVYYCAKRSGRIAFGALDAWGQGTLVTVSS VL: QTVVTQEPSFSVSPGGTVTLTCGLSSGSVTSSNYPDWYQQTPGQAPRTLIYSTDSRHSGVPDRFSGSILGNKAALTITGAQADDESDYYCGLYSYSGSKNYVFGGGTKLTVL" value_reported=1.02e+06
binder="3B2g2m2 (antibody, human IgG1, V domains shown, human IgG1-LALA backbone; produced in HEK293 cells) VH: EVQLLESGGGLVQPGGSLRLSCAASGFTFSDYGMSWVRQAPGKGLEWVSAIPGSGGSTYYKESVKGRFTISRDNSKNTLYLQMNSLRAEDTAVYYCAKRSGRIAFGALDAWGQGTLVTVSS VL: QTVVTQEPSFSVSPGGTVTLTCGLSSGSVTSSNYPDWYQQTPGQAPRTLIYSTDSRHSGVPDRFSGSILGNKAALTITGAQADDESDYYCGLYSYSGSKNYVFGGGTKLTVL" value_reported=40000

Q: Dear colleague, please send me the reported kon for 3B2g1m1 (antibody, human IgG1, V domains shown, human IgG1-LALA backbone; produced in HEK293 cells) VH: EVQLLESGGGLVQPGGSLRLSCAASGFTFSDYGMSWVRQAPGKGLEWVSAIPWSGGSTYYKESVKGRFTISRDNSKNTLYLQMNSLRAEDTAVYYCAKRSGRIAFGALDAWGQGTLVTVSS VL: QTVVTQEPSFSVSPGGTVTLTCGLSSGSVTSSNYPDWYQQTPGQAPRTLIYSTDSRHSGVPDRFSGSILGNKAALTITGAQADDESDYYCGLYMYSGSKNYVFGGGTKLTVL when you can.
Result: 1.16e+06

Q: Return kon for the following binder: 3B2 (antibody, V domains shown, human IgG1 with the LALA mutations (L234A, L235A); produced in HEK293 cells; also called 3B2 mAb; parental 3B2 Ab) VH: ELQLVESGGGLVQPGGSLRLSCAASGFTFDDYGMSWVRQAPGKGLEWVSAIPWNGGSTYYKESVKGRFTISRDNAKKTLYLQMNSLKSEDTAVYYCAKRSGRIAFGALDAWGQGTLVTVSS VL: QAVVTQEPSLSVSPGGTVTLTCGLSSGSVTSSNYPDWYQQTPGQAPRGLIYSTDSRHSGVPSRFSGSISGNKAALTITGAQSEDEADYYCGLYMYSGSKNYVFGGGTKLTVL
Result: 980000

meta.source: patent US20230151091A1
